- Test summary: Thermostability (Tm, Tonset, Tagg) by Nanotemper DSF
- Type: physicochemical
- Parameters: key: temperatures in °C
- Run parameters: anti-Fel d1 VHH; single melting point; in °C (unit assumed)
The molecules listed here are annotated with their Tm.
API doc: respond with a numeric literal and nothing else, no unit.

Here are 2 molecules together with their reported answers.
Lookup: # lookup: Tm of SDAB22110-3-1-D9-1: anti-Fel d1 VHH clone, SEQ ID NO: 52 (protein) VHH: AVQLVESGGGLVQPGGSLRLSCIISGFTSVSYSIVWFRQAPGKGREGVSCIGSSGGSTDYIDSVKGRFTISRDSAKNTVYLQMDCLKPEDTAVYYCAALRDVYRLCVIDYMNNDYWGQGTQVTVSS
Found: 47.50

Lookup: Follow-up item: SDAB22110-4-3-B02: anti-Fel d1 VHH clone, SEQ ID NO: 54 (protein) VHH: QVQLVESGGGLVQPGGSLRLSCVASGFTFSFYTMEWYRQAAGKQRELVAGLTASGTTHYADSAKGRFTISRDNAWNTVFLQMNGLKPEDTAVYYCNAYSGYRDYWGQGTQVTVSL
Found: 46.83

--- query ---
Lookup: Reported Tm, molecule SDAB22110-3-2-H08: anti-Fel d1 VHH clone, SEQ ID NO: 53 (protein) VHH: QVQLVESGGGLVQPGGSLRLSCAASGFTFSRKGMSWYRQVPGKEREWVARIYSTGEKTDYADSVKGRFTISRDNAKNMVYLDMNSLKPEDTAVYYCKAWGYEYWNQGTQVTVSS : ____
Found: 42.43
